Value source: the Deep4Chem optical property database

EXPERIMENT SUMMARY: solvent given as SMILES
APPLIED CONDITIONS: in ClCCl
API: label(entry) gives TRUE if the entry's absorption maximum is strictly smaller than 400 nm; on equality or larger values it gives FALSE.

Hi there! Is absorption maximum for COc1cnc(-c2cc[n+](C3=C(F)C(F)(F)C(F)(F)[C-]3F)cc2)s1 below 400 nm, do you know?
FALSE

Item CCCCCCCCCCCCN1C(=O)c2c(c3ccc4cc(-c5ccc(N(C)C)cc5)c(OC)cc4c3c3c2ccc2cc(-c4ccc(N(C)C)cc4)c(OC)cc23)C1=O : absorption maximum beneath 400 nm, strictly?
FALSE

State whether 400 nm exceeds absorption maximum recorded for CCOC(=O)c1c(-c2cc3cc4c(cc3oc2=O)OC(C)(C)CC4)nn(-c2ccccc2)c1C(=O)OCC .
TRUE

Bench note: check whether COc1ccc(C#Cc2ccc(C#N)cc2)cc1 shows absorption maximum below 400 nm
TRUE

Consider the compound Fc1ccc(C#Cc2cc(C#Cc3ccc(F)cc3)c(C#Cc3ccc(F)cc3)c(C#Cc3ccc(F)cc3)c2C#Cc2ccc(F)cc2)cc1 . Is its absorption maximum strictly less than 400 nm?
TRUE

Check if absorption maximum falls below 400 nm for C(=C\c1ccc(N(c2ccccc2)c2ccccc2)cc1)/c1ccc(-c2cc(-c3ccccn3)nc(-c3ccccn3)c2)cc1 .
TRUE

I'd appreciate it if you could check whether CC(C)(C)Nc1c(-c2ccc(-c3cc(=O)cc(-c4ccccc4)o3)cc2)nc2ccccn12 has absorption maximum smaller than 400 nm.
TRUE

Decide: absorption maximum of CCOC(=O)c1c(-c2cc3c(ccc4ccccc43)oc2=O)nn(-c2cccc(C)c2)c1C(=O)OCC strictly below 400 nm?
TRUE

Lab log: compare recorded absorption maximum with 400 nm; is it strictly lower for CCN1c2ccc(/C=N/Nc3ccccn3)cc2Sc2cc(-c3ccccc3)ccc21 ?
TRUE

Determine if CCCCN(CCCC)c1ccc2c#cc3cc4c#cc5ccc(C(F)(F)F)cc5c#cc#cc5cc(C(F)(F)F)ccc5c#cc4cc3c#cc3ccc(N(CCCC)CCCC)cc3c#cc#cc2c1 shows absorption maximum strictly lower than 400 nm.
FALSE

Please determine if CN(C)c1ccc(/C=C/c2ncnc3ccccc23)cc1 is below 400 nm in terms of absorption maximum.
FALSE

# TODO verify absorption maximum < 400 nm strictly for this compound: O=C1c2cccc3c(-n4c5ccccc5c5ccccc54)ccc(c23)C(=O)N1c1ccccc1
FALSE
